target_desc: Calcium and integrin-binding protein 1 (Homo sapiens) (UniProt Q99828)
Sequence (Q99828 whole entry, looked up): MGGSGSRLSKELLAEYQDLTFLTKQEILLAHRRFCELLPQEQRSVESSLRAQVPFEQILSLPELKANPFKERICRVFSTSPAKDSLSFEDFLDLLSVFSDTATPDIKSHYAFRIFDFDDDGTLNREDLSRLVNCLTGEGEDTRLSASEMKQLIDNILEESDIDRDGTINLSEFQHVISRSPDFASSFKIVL
assay_comment: Validation qHTS for Identification of Calcium Integrin Binding protein 1 (CIB1) Competitor (AID 1508618); also: % is scaled to controls: 0 for no effect and ±100 for the full control effect
condition: CIB1-GST / FITC-alphaIIb peptide fluorescence polarization; series mostly up to 114 µM
Records with an inconclusive call do not appear. Calls of active or inactive are those of the source. Calls follow the shape of the dose curve; as a rule, active = well fitted curve in the direction sought with a large enough effect; inconclusive = small, poorly fitted or top-dose-only effect, or another doubt; inactive = no such curve, though single readings can be large or run the other way.
property_label: outcome

1) NC(=O)OCC(COC(N)=O)c1ccccc1: inactive
2) COc1ccccc1N1CCN(CC(O)COc2cccc3ccccc23)CC1 (stereo not drawn): inactive
3) Cc1cc(C(C)(C)C)cc(C)c1CC1=NCCN1: inactive
4) CN1C(C(=O)Nc2ccccn2)=C(O)c2ccccc2S1(=O)=O: inactive
5) O=C1Cc2cc(CCN3CCN(c4nsc5ccccc45)CC3)c(Cl)cc2N1: inactive
6) COc1nc(C)nc(Cl)c1NC1=NCCN1: inactive
7) CCC1(C)CC(=O)NC1=O (stereo not drawn): inactive
8) CCC1(c2ccccc2)C(=O)NCNC1=O: inactive

I have 5 compounds here; please give me outcome for each one.
1. CN(C)CCOC(c1ccccc1)c1ccccc1
2. C[C@](N)(Cc1ccc(O)c(O)c1)C(=O)O
3. Fc1ccc([C@@H]2CCNC[C@H]2COc2ccc3c(c2)OCO3)cc1
4. NC(CO)C(=O)NNCc1ccc(O)c(O)c1O (stereo not drawn)
5. Nc1nnc(-c2cccc(Cl)c2Cl)c(N)n1

stdout:
1: inactive; 2: inactive; 3: inactive; 4: inactive; 5: inactive

###

Please provide measured max response for the entries that follow.
System: HEK293
assay_comment: Cytotoxic Profiling of Annotated Libraries Using Quantitative High-Throughput Screening (AID 1296008); also: % is scaled to controls: 0 for no effect and ±100 for the full control effect; nearly all actives have a fitted effect of over 60% in size
condition: Five cell lines viability, CellTiter-Glo ATP luminescence, 48-72 h; active compounds read low
Results filed as inconclusive are left out.
Answers are plain numbers, in %.

Some solved entries appear below for comparison.
1. NC(=O)OCC(COC(N)=O)c1ccccc1: -9.25
2. CCOC(=O)C(C)(C)Oc1ccc(Cl)cc1: 4.89
3. CCc1cccc2c3c([nH]c12)C(CC)(CC(=O)O)OCC3 (centres undefined): 1.01

Let's switch to this compound now.
`Cc1ccc(-c2cc(C(F)(F)F)nn2-c2ccc(S(N)(=O)=O)cc2)cc1` yielded max response of -17.2

###

Tested on: ATS95
assay_comment: qHTS profiling for inhibitors of Plasmodium falciparum proliferation (AID 504749); also: nearly all actives have a fitted effect of over 60% in size
condition: P. falciparum in erythrocytes, SYBR Green DNA, 72 h; series mostly up to 28.7 µM
Inconclusive results are not listed. Activity calls are given as the source filed them. The call rests on the fitted dose curve; in most records, active means well fitted inhibition curve with a large enough effect; inconclusive means small, poorly fitted or top-dose-only effect; inactive means flat fitted curve, though single readings scatter.
Hi! Could you answer with just one of these? active, inactive

These solved cases illustrate the format of a correct answer.
1) C[C@](N)(Cc1ccc(O)c(O)c1)C(=O)O: inactive
2) Cn1c(=O)c2[nH]cnc2n(C)c1=O: inactive
3) OCCN1CCN(CCCN2c3ccccc3Sc3ccc(C(F)(F)F)cc32)CC1: active
4) CC(=O)OCC(CCn1cnc2cnc(N)nc21)COC(C)=O: inactive

stdin: Give the logged outcome of this assay for the following compound: `NS(=O)(=O)c1cc2c(cc1Cl)NCNS2(=O)=O`
stdout: inactive

stdin: Kindly provide the recorded test outcome for the following compound: `CC[C@@]1(O)C(=O)OCc2c1cc1n(c2=O)Cc2cc3c(CN(C)C)c(O)ccc3nc2-1`
stdout: active

stdin: Please let me know the test result on file for COc1ccccc1OCC(O)CN1CCN(CC(=O)Nc2c(C)cccc2C)CC1 (configuration not stated) .
stdout: inactive

stdin: How did this test come out for `Cc1cc(C(C)(C)C)c(O)c(C)c1CC1=NCCN1` ?
stdout: inactive

stdin: Called result for `CCOC(=O)c1ncn2c1CN(C)C(=O)c1cc(F)ccc1-2`
stdout: inactive

stdin: Dear all, I need the recorded test outcome for CCCNCC(O)COc1ccccc1C(=O)CCc1ccccc1 (configuration not stated) , thank you.
stdout: active

###

target_desc: Protein phosphatase 1D (Homo sapiens)
assay_comment: Rhodamine-PBP qHTS Assay for Modulators of WT P53-Induced Phosphatase 1 (WIP1) (AID 1347425); also: % of control where 0% means no effect
condition: recombinant WIP1, Rhodamine-PBP phosphate fluorescence, real-time; series mostly up to 57.5 µM
Records with an inconclusive call do not appear. Calls of active or inactive are those of the source. Calls follow the shape of the dose curve; as a rule, active = well fitted curve in the direction sought with a large enough effect; inconclusive = small, poorly fitted or top-dose-only effect, or another doubt; inactive = no such curve, though single readings can be large or run the other way.
property_label: outcome

Example entries and their recorded answers appear below.
1. C[C@H]1c2cccc(O)c2C(O)=C2C(=O)[C@]3(O)C(O)=C(C(N)=O)C(=O)[C@@H](N(C)C)[C@@H]3[C@@H](O)[C@@H]21: inactive
2. Nc1nnc(-c2cccc(Cl)c2Cl)c(N)n1: inactive
3. CN1CCN2c3ccccc3Cc3ccccc3C2C1 (configuration not stated): inactive
4. Cn1cnc2c1c(=O)[nH]c(=O)n2C: inactive
5. CS(=O)(=O)CCNCc1ccc(-c2ccc3ncnc(Nc4ccc(OCc5cccc(F)c5)c(Cl)c4)c3c2)o1: inactive

Field: outcome. Fill in for each record below.
1. CC[N+](CC)(CC)CCOc1cccc(OCC[N+](CC)(CC)CC)c1OCC[N+](CC)(CC)CC
2. CN(CCOc1ccc(NS(C)(=O)=O)cc1)CCc1ccc(NS(C)(=O)=O)cc1
3. CN1C(C(=O)Nc2ccccn2)=C(O)c2ccccc2S1(=O)=O
4. CN1CCN(CCCN2c3ccccc3Sc3ccc(Cl)cc32)CC1

stdout:
1: inactive; 2: inactive; 3: inactive; 4: inactive

###

assay_comment: Quantitative High-Throughput drug screen in 47 multiple myeloma cell lines against the NCATS MIPE library collection: RPMI8226_ATCC cell viability assay (AID 1919871); also: nearly all actives have a fitted effect of over 30% in size
condition: RPMI8226 myeloma viability, CellTiter-Glo ATP luminescence, 48 h; series mostly up to 45.8 µM
Results filed as inconclusive are left out. Active and inactive are the calls of the source. Calls follow the shape of the dose curve; as a rule, active = well fitted cell-killing curve with a large enough effect; inconclusive = small, poorly fitted or top-dose-only effect, or effect the other way; inactive = no such curve, though single readings can be large or run the other way.
Respond using exactly one of the listed classes: Yes for active, No for inactive

Solved entries (count: 6):
1. COc1ccc(C2CNC(=O)C2)cc1OC1CCCC1 (stereo unspecified): No
2. CC(=O)OCC(CCn1cnc2cnc(N)nc21)COC(C)=O: No
3. CN(C)CCC=C1c2ccccc2C=Cc2ccccc21: Yes
4. Cc1cc(C(C)(C)C)cc(C)c1CC1=NCCN1: No
5. O=C1Cc2cc(CCN3CCN(c4nsc5ccccc45)CC3)c(Cl)cc2N1: Yes
6. COc1ccc2[nH]cc(CCNC(C)=O)c2c1: No

stdin: Tell me the recorded outcome of this test for `O=c1c(-c2ccc(O)cc2)coc2cc(O)cc(O)c12` .
stdout: Yes

stdin: Name the outcome recorded for `O=C1c2c(O)ccc(O)c2C(=O)c2c(NCCNCCO)ccc(NCCNCCO)c21` in the assay.
stdout: Yes

stdin: # lookup: test call for CC(C)Cc1ccc(C(C)C(=O)O)cc1 (stereo unspecified)
stdout: No

###

target_desc: Ferritin light chain (Equus caballus) (UniProt P02791)
assay_comment: qHTS Validation Assay for Identification of Novel General Anesthetics (AID 2323); also: % is scaled to controls: 0 for no effect and ±100 for the full control effect
condition: horse apoferritin, anesthetic-site fluorescent probe displacement; series mostly up to 76.9 µM
Results filed as inconclusive are left out. Activity calls are given as the source filed them. Calls follow the shape of the dose curve; as a rule, active = well fitted curve in the direction sought with a large enough effect; inconclusive = small, poorly fitted or top-dose-only effect, or another doubt; inactive = no such curve, though single readings can be large or run the other way.
Respond using exactly one of the listed classes: active, inactive

1. O=c1[nH]cc(F)c(=O)[nH]1: inactive

stdin: Recorded call for `O=C(CCCN1CCC(O)(c2ccc(Cl)cc2)CC1)c1ccc(F)cc1` ?
stdout: inactive

stdin: State the result this test recorded for `CN(C)CCOC(c1ccccc1)c1ccccc1` .
stdout: inactive

stdin: Look up the recorded call for `NS(=O)(=O)c1cc2c(cc1Cl)NCNS2(=O)=O` in this test.
stdout: inactive

stdin: // return assay outcome for `CN1C(C(=O)Nc2ccccn2)=C(O)c2ccccc2S1(=O)=O`
stdout: inactive

stdin: Assay result, entry `CC[N+](CC)(CC)CCOc1cccc(OCC[N+](CC)(CC)CC)c1OCC[N+](CC)(CC)CC` — outcome?
stdout: inactive

stdin: Would you mind telling me which call this test gave CC(C)NCC(O)COc1ccc(CCOCC2CC2)cc1 (configuration not stated) ?
stdout: inactive

###

assay_comment: Natriuretic polypeptide receptor (hNpr1) antagonism - Pilot counterscreen GloSensor control cell line (AID 1347045)
condition: HEK293 cGMP GloSensor cells, SNP-stimulated luminescence, 20 min; series mostly up to 38.3 µM
Records with an inconclusive call do not appear. The source made the active and inactive calls. Calls come from the whole dose curve.
// classify into active, inactive

1) CNCCCC12CCC(c3ccccc31)c1ccccc12: inactive
2) COc1ccc2c(c1)c(CC(=O)O)c(C)n2C(=O)c1ccc(Cl)cc1: inactive
3) CN1C(C(=O)Nc2ccccn2)=C(O)c2ccccc2S1(=O)=O: inactive
4) CN1CCN2c3ccccc3Cc3ccccc3C2C1 (configuration not stated): inactive
5) Nc1c2c(nc3ccccc13)CCCC2: inactive

stdin: // return assay outcome for `NCCCCCC(=O)O`
stdout: inactive

stdin: # fetch the recorded call for `Cc1cn([C@H]2C=C[C@@H](CO)O2)c(=O)[nH]c1=O` here
stdout: inactive

stdin: Dear all, I need the recorded test outcome for `COC(=O)Nc1nc2ccc(C(=O)c3cccs3)cc2[nH]1` , thank you.
stdout: inactive

stdin: Any idea what this test logged for `O=c1[nH]cc(F)c(=O)[nH]1` ?
stdout: inactive

stdin: What is the recorded call for this compound in the test? `COc1ccc2[nH]cc(CCNC(C)=O)c2c1`
stdout: inactive

stdin: What outcome does the record of this test show for CN1C2CCC1CC(OC(=O)C(CO)c1ccccc1)C2 (configuration not stated) ?
stdout: inactive

stdin: For this compound, state the assay outcome: `CN(C)C(=O)C(CCN1CCC(O)(c2ccc(Cl)cc2)CC1)(c1ccccc1)c1ccccc1`
stdout: active
